tested on: CD117; test: Gene editing of CD117 in TF-1 cells, loss of SR-1 binding by FACS; type: cell-based, human; settings: FACS 7 days after electroporation with Cas9, crRNA/tracrRNA or sgRNA and HDR template
Mark rule met only when KnockOut Efficiency (loss of binding of SR-1 compared to wild type cells) stays strictly below 60%. Values equal to the cut-off are rule not met.

Find out if reported KnockOut Efficiency (loss of binding of SR-1 compared to wild type cells) for KIT_E73_2: crRNA AAAGTCCATTTGACAAAGCC, SEQ ID NO: 4, targets E73 of CD117 (chemistry not given here) is less than 60% rule met

API: query returns whether the substance falls strictly under 60% in KnockOut Efficiency (loss of binding of SR-1 compared to wild type cells). Query: KIT_120_123_1: crRNA GTTGTCTTCTTTCCCATACA, SEQ ID NO: 9, targets residues 120-123 of CD117 (chemistry not given here) rule not met

Source listed as patent US20250057951A1.
